Assay: Metabolic stability test in liver S9
Format: in vitro ADME
Conditions: pH 7.4; unchanged form after 60 minutes at 37°C, human liver S9 2 mg protein/mL, LC/MS; read-out: Remaining rate in human liver S9 (%/60min)
measure: remaining at 1 h (%)

- COC(=O)c1ccc(OC(=O)CCCc2ccc(NC(=O)c3ccccc3-c3ccc(C(F)(F)F)cc3)c(C(=O)N(C)C)c2)cc1C [Compound 1-14]: 0
- CN(C)C(=O)c1cc(CCCC(=O)Oc2ccc(C(=O)OCC(=O)OCc3ccccc3)cc2)ccc1NC(=O)c1ccccc1-c1ccc(C(F)(F)F)cc1 [Compound 1-78]: 2
- COC(=O)c1ccc(OC(=O)C2CCN(c3ccc(NC(=O)c4ccccc4-c4ccc(C(F)(F)F)cc4)c(C(=O)N(C)C)c3)CC2)cc1 [Compound 3-1]: 0
- CC(C)OC(=O)c1ccc(OC(=O)CCCc2ccc(NC(=O)c3ccccc3-c3ccc(C(F)(F)F)cc3)c(C(=O)N(C)C)c2)cc1 [Compound 1-7]: 0
- COC(=O)c1cc(C)c(OC(=O)CCCc2ccc(NC(=O)c3ccc(C)nc3-c3ccc(C(F)(F)F)cc3)c(C(=O)N(C)C)c2)c(Cl)c1 [Compound 1-35]: 0
- CC(C)n1nnc(-c2ccc(OC(=O)CCCc3ccc(NC(=O)c4ccccc4-c4ccc(C(F)(F)F)cc4)c(C(=O)N(C)C)c3)cc2)n1 [Compound 1-115]: 0
- CCc1cc(C(=O)OC)ccc1OC(=O)CCCc1ccc(NC(=O)c2ccccc2-c2ccc(C(F)(F)F)cc2)c(C(=O)N(C)C)c1 [Compound 1-67]: 0
- COC(=O)c1cc(OC)c(OC(=O)CCCc2ccc(NC(=O)c3ccc(C)nc3-c3ccc(C(F)(F)F)cc3)c(C(=O)N(C)C)c2)c(OC)c1 [Compound 1-39]: 2
- CN(C)C(=O)c1cc(CCCC(=O)Oc2ccc(C(=O)O)cc2)ccc1NC(=O)c1ccccc1-c1ccc(C(F)(F)F)cc1 [Compound 1-25]: 0
- CCOC(=O)c1ccc(OC(=O)CCCc2ccc(NC(=O)c3ccc(C)nc3-c3ccc(C(F)(F)F)cc3)c(C(=O)N(C)C)c2)cc1 [Compound 1-71]: 0
- CN(C)C(=O)c1cc(CCCC(=O)Oc2ccc(-c3nnn(CC(=O)OCc4ccccc4)n3)cc2)ccc1NC(=O)c1ccccc1-c1ccc(C(F)(F)F)cc1 [Compound 1-104]: 5
- COC(=O)c1cc(OC)c(OC(=O)CCCc2ccc(NC(=O)c3ccc(C)nc3-c3ccc(C(F)(F)F)cc3)c(C(=O)N(C)C)c2)c(C(F)(F)F)c1 [Compound 1-47]: 0
- COC(=O)c1ccc(OC(=O)CCCc2ccc(NC(=O)c3cccnc3-c3ccc(C(F)(F)F)cc3)c(C(=O)N(C)C)c2)cc1 [Compound 1-28]: 0
- COC(=O)c1cc(Br)c(OC(=O)CCCc2ccc(NC(=O)c3ccc(C)nc3-c3ccc(C(F)(F)F)cc3)c(C(=O)N(C)C)c2)c(OC)c1 [Compound 1-50]: 2
- COC(=O)c1cc(Cl)c(OC(=O)CCCc2ccc(NC(=O)c3ccc(C)nc3-c3ccc(C(F)(F)F)cc3)c(C(=O)N(C)C)c2)c(OC)c1 [Compound 1-36]: 0
- Cc1noc(-c2ccc(OC(=O)CCCc3ccc(NC(=O)c4ccccc4-c4ccc(C(F)(F)F)cc4)c(C(=O)N(C)C)c3)cc2)n1 [Compound 1-2]: 0
- CN(C)C(=O)c1cc(CC(=O)Oc2ccccc2)ccc1NC(=O)c1ccccc1-c1ccc(C(F)(F)F)cc1 [Compound 1-3]: 0
- CN(C)C(=O)c1cc(CCCC(=O)Oc2ccc(C(=O)OCc3ccc(C(=O)OC(C)(C)C)cc3)cc2)ccc1NC(=O)c1ccccc1-c1ccc(C(F)(F)F)cc1 [Compound 1-103]: 12
- COc1cc(C(=O)OCCNC(C)=O)cc(Cl)c1OC(=O)CCCc1ccc(NC(=O)c2ccc(C)nc2-c2ccc(C(F)(F)F)cc2)c(C(=O)N(C)C)c1 [Compound 1-114]: 3
- CCCC(=O)c1ccc(OC(=O)CCCc2ccc(NC(=O)c3ccccc3-c3ccc(C(F)(F)F)cc3)c(C(=O)N(C)C)c2)cc1 [Compound 1-93]: 0
- COC(=O)c1ccc(OC(=O)CCCc2ccc(NC(=O)c3ccccc3-c3ccc(C(F)(F)F)cc3)c(C(=O)N(C)C)c2)c(C(C)C)c1 [Compound 1-68]: 3
- Cc1ccc(C(=O)Nc2ccc(CCCC(=O)Oc3ccc(C(=O)OCc4ccccc4)cc3)cc2C(=O)N(C)C)c(-c2ccc(C(F)(F)F)cc2)n1 [Compound 1-80]: 0
- COc1cc(C(=O)OC(C)C)cc(Cl)c1OC(=O)CCCc1ccc(NC(=O)c2ccc(C)nc2-c2ccc(C(F)(F)F)cc2)c(C(=O)N(C)C)c1 [Compound 1-37]: 11
- COC(=O)c1cc(C(=O)OC(C)C)cc(C)c1OC(=O)CCCc1ccc(NC(=O)c2ccc(C)nc2-c2ccc(C(F)(F)F)cc2)c(C(=O)N(C)C)c1 [Compound 1-111]: 3
